Test system: aryl hydrocarbon receptor (Cavia porcellus)
Assay: stimulation of AhR transformation and DNA binding – biochemical, radiometric EMSA, guinea pig liver cytosol, counter-screen for AhR activator project, late-stage follow-up (AID 624402)
Settings: AhR-DRE EMSA, run 2, at 10 µM, hits give high values
Grouping key: inhibition. Bins: lower band = under 7%, central band = from 7% up to 10%, upper band = 10% and over

Would you mind sorting "CN(Cc1cc(-c2cccs2)n[nH]1)Cc1coc2ccccc2c1=O" into the appropriate category? upper band

Given "Cc1ccc(O)c(-c2cc(-c3ccccc3Cl)[nH]n2)c1" , name the class its inhibition places it in. upper band

Textbook exercise: identify the category of the compound given here, "Cc1ccc(NC(=O)c2ccc(C(=O)Nc3ccc(C)cc3C)nc2)c(C)c1" , according to its measured value. central band

Classify this compound: "Cc1ccc(-c2cc(-c3ccc(F)cc3)n[nH]2)c(O)c1" upper band

Category lookup for the compound "Cc1cc(Br)cc(C)c1Nc1ccnc(Nc2ccc(C#N)cc2)n1" lower band

Exercise: read the entry "O=C(CSc1nc2ccccc2s1)Nc1ccc(Cl)cn1" and state which class it falls under. upper band

Band of "COc1ccc(Cl)cc1NC(=O)c1ccc(C(=O)Nc2cc(Cl)ccc2OC)nc1" ? central band

Classify this compound: "Cc1ccc(-c2cc(-c3cccc(F)c3)n[nH]2)c(O)c1" upper band

Please indicate the class for "Cc1ccnc(NC(=O)CSc2nc3ccccc3s2)c1" based on its inhibition. upper band

State the class of the compound shown: "COc1ccc(NC(=O)c2ccc(C(=O)Nc3ccc(OC)cc3OC)nc2)c(OC)c1" upper band

Each compound maps to one class by inhibition. Which class for "Nc1nc(Cl)cc(Nc2ccc(Oc3ccccc3)cc2)n1" ? central band

Classify this compound: "Cc1cccc(NC(=O)c2cc(-c3ccc(C)cc3O)n[nH]2)c1" lower band

Categorize the following entry: "CCOc1ccccc1NC(=O)c1ccc(C(=O)Nc2ccccc2OCC)nc1" lower band

# bin label for "COc1ccc(O)c(-c2cc(-c3cccs3)[nH]n2)c1" lower band

Where would "Cc1ccc(-c2cc(-c3ccc(Cl)cc3)n[nH]2)c(O)c1" land among the classes by reported inhibition? upper band

Category lookup for the compound "Cc1cc(Nc2ccc(F)cc2)nc(N)n1" lower band

Category of "O=C(CSc1nc2ccccc2s1)Nc1ccccn1" , please. upper band

For this compound, which bin applies? "COc1ccc(-c2cc(-c3ccc(C)cc3O)[nH]n2)cc1" lower band

Exam item: assign "Nc1nc(Cl)cc(Nc2ccccc2F)n1" to the correct category. upper band

State the band of "Cc1csc(SCC(=O)Nc2ccccn2)n1" lower band

// bin(item) where item = "CCOC(=O)c1c(C)nn(-c2cc(Cl)ccc2Cl)c1C" lower band

Just checking, what class would you give "Cc1cccc(C)c1NC(=O)c1ccc(C(=O)Nc2c(C)cccc2C)nc1" here? central band

Looking at "COc1ccc(Nc2cc(Cl)nc(N)n2)cc1OC" , which class would you pick? lower band
